Data origin: ChEMBL document CHEMBL1201862

Test system: OVCAR-8
ASSAY_OVERVIEW: NCI tumour cell line growth inhibition, 48 h
Calls of active or inactive are those of the source. Rule as the data show it: active = GI50 up to about 1.1 µM and inactive = higher.
OBSERVATION_TYPE: GI50

Query block: Item c1ccc(C(c2ccccc2)c2ccncc2)cc1 : provide GI50
Result block: > 100 µM (inactive)

Query block: Item CC1=[N+]([O-])c2ccccc2C(=O)C1=O : provide GI50
Result block: > 100 µM (inactive)

Query block: Item CCOC(=O)CNC(=O)C(CSCC1C(=O)Nc2ccccc21)NC(=O)CCC(N)C(=O)OCC (stereo not given) : provide GI50
Result block: 2.81 µM (inactive)

Query block: Item O=C(c1ccccc1)c1ccc(-n2c3ccccc3c3ccc4c(c32)C(=O)C=CC4=O)cc1 : provide GI50
Result block: 7.24 µM (inactive)

Query block: Item Oc1cc2c(cc1O)-c1[nH]ncc1CC2 : provide GI50
Result block: 37.9 µM (inactive)

---

Tested on: SW-620
ASSAY_OVERVIEW: NCI tumour cell line growth inhibition, 48 h
The source made the active and inactive calls. No stated cut-off is given here; in the data, active = GI50 up to about 1.1 µM and inactive = higher.
Pick one: label 1 = active, label 0 = inactive

Query block: Kindly provide the recorded test outcome for the following compound: O=C1c2cccc3cc([N+](=O)[O-])cc(c23)C(=O)N1CCNCCNCCNCCN1C(=O)c2cccc3cc([N+](=O)[O-])cc(c23)C1=O
Result block: label 1

Query block: Kindly provide the recorded test outcome for the following compound: CCOC(=O)CNC(=O)C(CSCC1C(=O)Nc2ccccc21)NC(=O)CCC(N)C(=O)OCC (centres undefined)
Result block: label 0

Query block: Kindly provide the recorded test outcome for the following compound: C1#Cc2ccccc2OCCOc2ccccc2C#Cc2ccccc2OCCOc2ccccc21
Result block: label 0

Query block: Kindly provide the recorded test outcome for the following compound: COc1ccc(C2c3c(-c4ccccc4)nn(-c4ccccc4)c3Oc3ncn(N)c(=N)c32)cc1OC (centres undefined)
Result block: label 0

---

For each record, write down the corresponding GI50.
Test system: SN12C
ASSAY_OVERVIEW: NCI tumour cell line growth inhibition, 48 h
Active and inactive are the calls of the source. Rule as the data show it: active = GI50 up to about 1.1 µM and inactive = higher.

Query block: Specify the recorded GI50 for Oc1c(C(O)c2ccccn2)ccc2ccccc12 (stereo not given) , system: SN12C.
Result block: 48.1 µM (inactive)

Query block: Specify the recorded GI50 for COc1ccc(/C=C/c2cc(=O)cc(/C=C/c3ccc(OC)c(O)c3)o2)cc1O , system: SN12C.
Result block: 3.17 µM (inactive)

Query block: Specify the recorded GI50 for CC#CC(O)(C(=O)OC1CC2CCC(C1)N2C)C1CCCC1 (stereo not given) , system: SN12C.
Result block: > 100 µM (inactive)

Query block: Specify the recorded GI50 for COc1cccc(C(=O)C(O)c2cccc(OC)c2OC)c1OC (stereo not given) , system: SN12C.
Result block: > 100 µM (inactive)

Query block: Specify the recorded GI50 for O=C1c2cc3ncsc3cc2C(=O)c2c(O)ccc(O)c21 , system: SN12C.
Result block: > 100 µM (inactive)

Query block: Specify the recorded GI50 for Cc1cc(S(=O)(=O)Nc2nc(N)nc(N(C)C)n2)c(SC(C(=O)O)c2ccccc2)cc1Cl (stereo not given) , system: SN12C.
Result block: > 10 µM (inactive)

Query block: Specify the recorded GI50 for O=C(c1ccc(Cl)cc1)N(C(=O)N1CCC(c2ccccc2)CC1)c1ccccc1 , system: SN12C.
Result block: 99.5 µM (inactive)

Query block: Specify the recorded GI50 for O=C(O)C1(Nc2ccc(Cl)cc2)CCCC1 , system: SN12C.
Result block: > 100 µM (inactive)

Query block: Specify the recorded GI50 for Cc1nc2sccn2c1C(=O)OCCOCCOCCOCCOC(=O)c1c(C)nc2sccn12 , system: SN12C.
Result block: > 100 µM (inactive)

Query block: Specify the recorded GI50 for CC(CCC[C@H](C)CO)[C@H]1[C@@H](O)C(O)C2[C@@H]3C[C@@H](O)C4(O)C[C@@H](O)CC[C@]4(C)C3CC[C@@]21C (stereo not given in full) , system: SN12C.
Result block: > 100 µM (inactive)
